- System: obstruction-released kidney of male SD rats
- assay-comment: Obstruction release model after complete obstruction of unilateral ureter for 14 days (UUO/Release, Test Example 3)
- Type: in vivo, rat
- conditions: 30 mg/kg subcutaneously every day; Table 2
property: Rate of Cases where tubulointerstitial Lesion was Suppressed

The recorded Rate of Cases where tubulointerstitial Lesion was Suppressed for CCOC(=O)C(=O)CCC(=O)O [(9-1), ethyl 2-ketoglutarate] is 100% (4/4)

For reference, reported Rate of Cases where tubulointerstitial Lesion was Suppressed for CC(OC(=O)[C@]1(Oc2ccc(F)cc2)CCC(=O)O1)c1ccc2ccccc2c1 (mixture of isomers) [(4-2)] stands at 100% (4/4)

// field: Rate of Cases where tubulointerstitial Lesion was Suppressed; key: O=C1OC(Cl)(C(=O)OCc2ccccc2)c2ccccc21 (stereo not shown) [(7-3)] ; value = 100% (4/4)

# Rate of Cases where tubulointerstitial Lesion was Suppressed of CCOC(=O)C1(Oc2ccc(F)cc2)CCC(=O)O1 (racemic) [Conventional Compound, reference compound] = 75% (3/4)

Data provenance is patent US20050143453A1.
